# System: Kappa-type opioid receptor (Homo sapiens)
# Sequence (P41145 whole entry): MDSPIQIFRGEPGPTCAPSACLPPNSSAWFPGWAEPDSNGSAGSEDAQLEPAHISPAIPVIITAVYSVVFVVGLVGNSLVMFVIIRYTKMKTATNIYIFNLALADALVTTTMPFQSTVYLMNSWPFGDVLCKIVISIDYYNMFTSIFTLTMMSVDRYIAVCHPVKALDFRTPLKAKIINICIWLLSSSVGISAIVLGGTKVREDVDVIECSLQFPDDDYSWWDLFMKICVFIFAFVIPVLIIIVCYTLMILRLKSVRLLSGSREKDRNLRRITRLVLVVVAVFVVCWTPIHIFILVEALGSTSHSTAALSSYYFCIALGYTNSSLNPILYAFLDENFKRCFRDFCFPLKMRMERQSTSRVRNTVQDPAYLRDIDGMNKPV
# Format: functional
Examples of compounds with documented IC50 follow.

Smiles input	IC50
Oc1ccc2ccccc2c1N=Nc1ccccn1	> 32 µM

Below: the item to evaluate.
Quick check: IC50 of COc1ccc(C(=O)Nc2ccccc2C(=O)N/N=C/c2ccccn2)cc1OC ?
> 32 µM

----------
Examples of molecules with documented CC50 follow.
# Assay explanation: HEp-2 cell cytotoxicity, dose response, cytotoxicity control for RSV inhibitor project, HTS (AID 2410)
# Assay type: functional
# Condition summary: human respiratory syncytial virus
The source made the active and inactive calls. No rule for the calls is given here.

Here is how some molecules turned out for CC50.
Molecule	CC50
O=C(N/C=C/c1ccccc1)Nc1ccc(Cl)cc1	20.8 µM (active)
O=C(O)c1ccc(-c2nc(-c3ccc(Cl)cc3Cl)cs2)cc1	> 50 µM (active)
CC(=O)c1cccc(S(=O)(=O)N2CCN(c3nc4cc(C)cc(C)c4cc3C#N)CC2)c1	18.4 µM (active)
COc1ccc(N(C)C(=O)c2cc3c(s2)-c2c(C)cccc2OC3)c(OC)c1	19.6 µM (active)

Quick check: CC50 of CCOC(=O)C1=C(C)N(Cc2ccccc2)C(=O)NC1c1ccccc1OS(=O)(=O)c1ccccc1[N+](=O)[O-] (stereo unspecified) ?
5.56 µM (active)

Quick check: CC50 of O=C(Nc1cnc(O)nc1O)c1cccc(F)c1 ?
18.6 µM (active)
